This collection of values is drawn from patent US20240390284A1.

tested on: HEK293 FT cells; test: Cas9 mRNA/sgRNA LNP gene editing, amplicon sequencing indel percentage (CRISPR-DAV); assay type: cell-based; settings: LNP formulation dosed at 20 uL into 5,000 HEK293 FT cells, four day incubation; rep2
For each record, write down the corresponding Indel % rep2 Hek.
# do not omit the unit; it follows the number

Recorded Indel % rep2 Hek for CCCCC/C=C\C/C=C\CCCC1OC(CCN(C)C)OC1CCC/C=C\C/C=C\CCCCC (stereo not shown) [Lipid 5] with HEK293 FT cells, please?
0.12%

Recorded Indel % rep2 Hek for CCCCC/C=C\C/C=C\CCCCCCCC1OC(CCN(C)C)OC1CCCCCCCCCCCCCCCCC (stereo not shown) [Lipid 4] with HEK293 FT cells, please?
62.46%

Recorded Indel % rep2 Hek for CCCCCCCC/C=C/CCCCCCCC1OC(CCN(C)C)OC1CCCCCCC/C=C/CCCCCCCC (stereo not shown) [Lipid 2] with HEK293 FT cells, please?
41.5%

Recorded Indel % rep2 Hek for CCCCCCCC/C=C/CCCCCCCC1OC(CCN(C)C)OC1CCCCCCCCCCCCCCCCC (stereo not shown) [Lipid 7] with HEK293 FT cells, please?
2.29%

* * *

test system: HEK293 FT cells; test: Cas9 mRNA/sgRNA LNP gene editing, amplicon sequencing indel percentage (CRISPR-DAV); format: cell-based; settings: LNP formulation dosed at 20 uL into 5,000 HEK293 FT cells, four day incubation; rep1
Endpoint Name: Indel % rep1 HEK293 FT (%)
# value in %; strip the unit string

Recorded Indel % rep1 HEK293 FT for CCCCCC=CCC=CCCCCCCCC1OC(CCN(C)C)OC1CCCCCCCCCCCCCCCCC (stereo in doubt) with HEK293 FT cells, please?
51.22

Recorded Indel % rep1 HEK293 FT for CCCCC/C=C\C/C=C\CCCCCCCC1OC(CCCN(C)C)OC1CCCCCCC/C=C\C/C=C\CCCCC (stereo not shown) with HEK293 FT cells, please?
93.59

Recorded Indel % rep1 HEK293 FT for CCCCCCCC/C=C\CCCCCCCC1OC(CCN(C)C)OC1CCCCCCCCCCCCCCCCC (stereo not shown) with HEK293 FT cells, please?
67.32

Recorded Indel % rep1 HEK293 FT for CCCCC/C=C\C/C=C\CCCCCC1OC(CCN(C)C)OC1CCCCC/C=C\C/C=C\CCCCC (stereo not shown) with HEK293 FT cells, please?
30.63

Recorded Indel % rep1 HEK293 FT for CCCCCCCC/C=C\CCCCCCCC1OC(CCN(C)C)OC1CCCCCCC/C=C\CCCCCCCC (stereo not shown) with HEK293 FT cells, please?
92.23

Recorded Indel % rep1 HEK293 FT for CCCCCCCC/C=C/CCCCCCCC1OC(CCN(C)C)OC1CCCCCCCCCCCCCCCCC (stereo not shown) with HEK293 FT cells, please?
2.58

Recorded Indel % rep1 HEK293 FT for CCCCCCCC/C=C/CCCCCCCC1OC(CCN(C)C)OC1CCCCCCC/C=C/CCCCCCCC (stereo not shown) with HEK293 FT cells, please?
16.5

Recorded Indel % rep1 HEK293 FT for CCCCC/C=C/C/C=C/CCCCCCCC1OC(CCN(C)C)OC1CCCCCCC/C=C/C/C=C/CCCCC (stereo not shown) with HEK293 FT cells, please?
84.41

Recorded Indel % rep1 HEK293 FT for CCCCC/C=C\C/C=C\CCCC1OC(CCN(C)C)OC1CCC/C=C\C/C=C\CCCCC (stereo not shown) with HEK293 FT cells, please?
0.09

Recorded Indel % rep1 HEK293 FT for CCCCC/C=C\C/C=C\CCCCCCCC1OC(CCN(C)C)OC1CCCCCCCCCCCCCCCCC (stereo not shown) with HEK293 FT cells, please?
53.08
